Assay: Lipophilicity: partition coefficient (octanol-buffer) and capacity factor by RP-HPLC
Format: physicochemical
Details: rp-hplc; reverse phase HPLC, 22°C; read-out: Capacity factor (22°C) k' (converted)
Mark true only when chromatographic logP stays strictly below 0.6. Values equal to the cut-off are false.

Solved entries:
molecule="CC[C@H](C(=O)OCc1ccccc1COC(=O)[C@@H](CC)[C@H](CO)Cc1cncn1C)[C@H](CO)Cc1cncn1C [Example 3]" class_name=true
molecule="CCC(=O)OC[C@H](Cc1cncn1C)[C@H](CC)C(=O)OCc1ccc(COC(=O)[C@@H](CC)[C@H](COC(=O)CC)Cc2cncn2C)cc1 [Example 10]" class_name=true
molecule="CCCCC(=O)OC[C@H](Cc1cncn1C)[C@H](CC)C(=O)OCc1ccc(COC(=O)[C@@H](CC)[C@H](COC(=O)CCCC)Cc2cncn2C)cc1 [Example 12]" class_name=false
molecule="CC[C@H](C(=O)OCCCCCCOC(=O)[C@@H](CC)[C@H](CO)Cc1cncn1C)[C@H](CO)Cc1cncn1C [Example 5]" class_name=true
molecule="CC[C@H](C(=O)OCc1ccccc1)[C@H](COC(=O)CCCC(=O)OC[C@H](Cc1cncn1C)[C@H](CC)C(=O)OCc1ccccc1)Cc1cncn1C [Example 16, O,O'-Glutaryl (dibenzyl) bispilocarpate]" class_name=true
molecule="CC[C@H](C(=O)OCc1ccccc1)[C@H](COC(=O)c1ccc(C(=O)OC[C@H](Cc2cncn2C)[C@H](CC)C(=O)OCc2ccccc2)cc1)Cc1cncn1C [Example 19]" class_name=false

Kindly review the next molecule as well.
Prompt: Dear colleague, could you confirm whether chromatographic logP of CC[C@H](C(=O)OCc1ccc(COC(=O)[C@@H](CC)[C@H](CO)Cc2cncn2C)cc1)[C@H](CO)Cc1cncn1C [Example 1] falls below 0.6? Thanks.
Completion: true
